// pKi collected for human 5-HT transporter (hSERT) (Homo sapiens)
To interpret pKi, take it as minus log10 of a concentration measured in moles per litre.

Consider the following illustrative entries.
>>> print(df.to_string())
                                   molecule  endpoint  measurement
0  CCNC(C)Cc1ccc2sccc2c1 (stereo not shown)       pKi         7.30
1  CNC(C)Cc1ccc2ccsc2c1 (stereo not shown) [drawing 525]       pKi         6.17
2  CNC(C)C(=O)c1ccc2sccc2c1 (stereo not shown)       pKi         6.05

Now consider a different molecule.
Input line: Find the measured pKi: item CNC(C)Cc1ccc2sccc2c1 (stereo not shown) , target or system human 5-HT transporter (hSERT) (Homo sapiens).
Output line: 6.92

---

molecular target: OPRM1 (Opioid Receptor Mu) (Homo sapiens, UniProt P35372); test: cell-based
Sequence (P35372 whole entry): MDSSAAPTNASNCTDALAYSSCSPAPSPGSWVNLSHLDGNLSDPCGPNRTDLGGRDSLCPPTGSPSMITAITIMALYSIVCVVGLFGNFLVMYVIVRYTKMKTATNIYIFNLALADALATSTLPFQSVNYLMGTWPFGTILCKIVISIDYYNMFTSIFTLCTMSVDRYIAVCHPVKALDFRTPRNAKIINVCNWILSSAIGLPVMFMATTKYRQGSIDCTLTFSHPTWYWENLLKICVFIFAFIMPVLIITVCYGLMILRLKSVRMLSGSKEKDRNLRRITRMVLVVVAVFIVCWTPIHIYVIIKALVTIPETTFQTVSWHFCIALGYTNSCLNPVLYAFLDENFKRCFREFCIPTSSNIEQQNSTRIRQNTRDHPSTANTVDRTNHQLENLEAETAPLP
Endpoint: EC50

Input line: Record CNC(C)Cc1ccc2ccsc2c1 (stereo not shown) [drawing 522] : what is its EC50 with OPRM1 (Opioid Receptor Mu) (Homo sapiens, UniProt P35372)?
Output line: > 10 µM

---

target: CAV1.2 (Voltage-gated L-type calcium channel) (Homo sapiens, UniProt Q13936); experiment: CAV1.2/Ion Channel
pEC50: −log10 of the molar value.
Endpoint: pEC50

Input line: Entry CNC(C)Cc1ccc2ccsc2c1 (stereo not shown) [drawing 522] has what pEC50?
Output line: < 5.00

---

target: 5-Hydroxytryptamine (Serotonin) Receptor 1B (5-HT1B) (Homo sapiens, UniProt P28222); test: 5-HT1B/cAMP; format: cell-based; details: EC50 (μM), antagonist
Endpoint: EC50

Input line: Requested field: EC50. Item: CNC(C)Cc1ccc2ccsc2c1 (stereo not shown) [drawing 522]
Output line: > 10 µM

---

target: HRH2 (Histamine Receptor H2) (Homo sapiens, UniProt P25021); assay: HRH2/cAMP
Sequence (P25021 whole entry): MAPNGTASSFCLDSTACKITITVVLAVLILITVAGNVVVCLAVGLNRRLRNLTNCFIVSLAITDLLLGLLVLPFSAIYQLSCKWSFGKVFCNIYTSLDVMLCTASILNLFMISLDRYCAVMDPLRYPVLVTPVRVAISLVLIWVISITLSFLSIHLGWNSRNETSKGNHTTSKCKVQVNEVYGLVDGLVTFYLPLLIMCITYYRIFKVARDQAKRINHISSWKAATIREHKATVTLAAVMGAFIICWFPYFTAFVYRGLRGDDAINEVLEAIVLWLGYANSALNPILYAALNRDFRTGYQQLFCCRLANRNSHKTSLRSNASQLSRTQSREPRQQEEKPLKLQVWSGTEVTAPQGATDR
pEC50: −log10 of the molar value.
Endpoint: pEC50

Input line: Consider the molecule CNC(C)Cc1ccc2ccsc2c1 (stereo not shown) [drawing 522] and give its measured pEC50.
Output line: < 5.00

---

Biological target: CHRM2 (Muscarinic acetylcholine Receptor M2) (Homo sapiens, UniProt P08172)
Sequence (P08172 1-466): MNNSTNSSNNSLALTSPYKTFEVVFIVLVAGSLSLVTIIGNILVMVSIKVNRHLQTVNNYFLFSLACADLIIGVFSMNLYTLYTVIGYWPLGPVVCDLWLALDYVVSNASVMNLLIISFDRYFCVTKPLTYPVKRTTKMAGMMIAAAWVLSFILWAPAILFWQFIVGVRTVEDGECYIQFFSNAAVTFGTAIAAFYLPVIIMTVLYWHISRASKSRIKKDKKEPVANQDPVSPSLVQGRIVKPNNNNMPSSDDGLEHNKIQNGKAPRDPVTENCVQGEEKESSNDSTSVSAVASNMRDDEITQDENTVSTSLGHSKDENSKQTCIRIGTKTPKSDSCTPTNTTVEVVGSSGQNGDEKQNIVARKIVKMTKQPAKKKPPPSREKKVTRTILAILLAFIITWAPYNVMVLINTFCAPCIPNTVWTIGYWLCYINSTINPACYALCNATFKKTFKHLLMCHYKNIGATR
Assay: CHRM2/cAMP
pEC50: −log10 of the molar value.
Endpoint: pEC50

Input line: Please report the recorded pEC50 for CNC(C)Cc1ccc2ccsc2c1 (stereo not shown) [drawing 522] .
Output line: < 5.00

---

target: human DAT (Homo sapiens); construct: expressed in transfected cells; experiment: hDAT [^3H]dopamine release assay (CHO cells); type: cell-based
Sequence (Q01959 whole entry): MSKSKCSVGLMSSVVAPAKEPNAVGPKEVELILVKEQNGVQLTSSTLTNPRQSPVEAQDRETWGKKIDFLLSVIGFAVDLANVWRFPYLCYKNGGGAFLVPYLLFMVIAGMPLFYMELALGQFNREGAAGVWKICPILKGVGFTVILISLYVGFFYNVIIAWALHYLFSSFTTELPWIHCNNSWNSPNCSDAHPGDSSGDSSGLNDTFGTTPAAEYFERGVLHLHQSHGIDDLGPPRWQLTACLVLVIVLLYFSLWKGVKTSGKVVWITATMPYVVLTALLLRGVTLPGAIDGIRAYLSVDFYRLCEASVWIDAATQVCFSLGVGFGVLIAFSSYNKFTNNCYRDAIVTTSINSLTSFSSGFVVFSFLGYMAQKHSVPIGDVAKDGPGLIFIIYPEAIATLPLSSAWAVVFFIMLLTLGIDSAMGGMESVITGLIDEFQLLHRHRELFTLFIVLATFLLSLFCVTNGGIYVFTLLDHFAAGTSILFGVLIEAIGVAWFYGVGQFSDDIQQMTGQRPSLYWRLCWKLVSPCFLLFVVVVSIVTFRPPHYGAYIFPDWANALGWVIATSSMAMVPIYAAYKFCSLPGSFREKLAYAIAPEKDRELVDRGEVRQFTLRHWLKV
Endpoint: pEC50
Worth noting: pEC50 values are minus log10 of concentrations stated in mol/L.

Solved entries (count: 3):
>>> print(df.to_string())
                                   compound  measurement
0  CNC(C)C(=O)c1ccc2sccc2c1.Cl (stereo not shown) [Bk-5-MAPBT, hydrochloride]         6.71
1  CNC(C)Cc1ccc2sccc2c1.Cl (stereo not shown) [Compound 5-MAPBT, hydrochloride]         6.89
2  CNC(C)Cc1ccc2ccsc2c1.Cl (stereo not shown) [Compound 6-MAPBT, hydrochloride]         7.15

Input line: So what's the measured pEC50 for this one? CCNC(C)Cc1ccc2sccc2c1.Cl (stereo not shown) [Compound 5-EAPBT, hydrochloride]
Output line: 7.01

---

target: ADORA2A (Adenosine Receptor A2A) (Homo sapiens, UniProt P29274); experiment: ADORA2A/Calcium Flux
Sequence (P29274 whole entry): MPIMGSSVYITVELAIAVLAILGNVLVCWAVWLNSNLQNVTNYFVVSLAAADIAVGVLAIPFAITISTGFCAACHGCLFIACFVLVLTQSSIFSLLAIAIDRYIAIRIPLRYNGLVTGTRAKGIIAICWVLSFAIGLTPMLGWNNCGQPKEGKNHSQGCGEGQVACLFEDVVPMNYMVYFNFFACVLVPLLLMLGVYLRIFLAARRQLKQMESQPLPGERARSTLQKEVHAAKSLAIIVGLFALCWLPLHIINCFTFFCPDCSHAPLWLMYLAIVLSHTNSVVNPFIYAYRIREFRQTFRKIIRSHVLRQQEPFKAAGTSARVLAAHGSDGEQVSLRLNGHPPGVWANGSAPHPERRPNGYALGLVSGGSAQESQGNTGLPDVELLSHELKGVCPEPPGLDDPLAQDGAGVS
pEC50: −log10 of the molar value.
Endpoint: pEC50

Input line: Please give the measured pEC50 for this compound: CNC(C)Cc1ccc2ccsc2c1 (stereo not shown) [drawing 522]
Output line: < 5.00

---

biological target: ADRB2 (Adrenergic Receptor β2) (Homo sapiens); assay: ADRB2/cAMP; assay type: cell-based; details: EC50 (μM), antagonist
Sequence (P07550 whole entry): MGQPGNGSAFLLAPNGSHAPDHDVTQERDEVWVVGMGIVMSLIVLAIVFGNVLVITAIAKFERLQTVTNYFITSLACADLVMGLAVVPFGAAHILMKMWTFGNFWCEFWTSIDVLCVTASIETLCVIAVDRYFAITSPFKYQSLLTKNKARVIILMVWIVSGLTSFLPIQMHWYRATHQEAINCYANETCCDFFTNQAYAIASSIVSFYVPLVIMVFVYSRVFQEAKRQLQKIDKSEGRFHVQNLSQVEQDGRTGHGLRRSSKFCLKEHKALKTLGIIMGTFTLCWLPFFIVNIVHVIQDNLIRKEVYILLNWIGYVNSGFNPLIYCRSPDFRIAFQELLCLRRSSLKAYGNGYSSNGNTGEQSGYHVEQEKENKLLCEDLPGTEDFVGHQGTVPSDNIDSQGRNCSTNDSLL
Endpoint: EC50

Input line: Lab note: need EC50 with ADRB2 (Adrenergic Receptor β2) (Homo sapiens) for entry CNC(C)Cc1ccc2ccsc2c1 (stereo not shown) [drawing 522] , please look it up.
Output line: 5.79 µM

---

target: NET (Norepinephrine transporter) (Homo sapiens, UniProt P23975); test: NET/Transporter (fluorescent substrate uptake)
Sequence (P23975 whole entry): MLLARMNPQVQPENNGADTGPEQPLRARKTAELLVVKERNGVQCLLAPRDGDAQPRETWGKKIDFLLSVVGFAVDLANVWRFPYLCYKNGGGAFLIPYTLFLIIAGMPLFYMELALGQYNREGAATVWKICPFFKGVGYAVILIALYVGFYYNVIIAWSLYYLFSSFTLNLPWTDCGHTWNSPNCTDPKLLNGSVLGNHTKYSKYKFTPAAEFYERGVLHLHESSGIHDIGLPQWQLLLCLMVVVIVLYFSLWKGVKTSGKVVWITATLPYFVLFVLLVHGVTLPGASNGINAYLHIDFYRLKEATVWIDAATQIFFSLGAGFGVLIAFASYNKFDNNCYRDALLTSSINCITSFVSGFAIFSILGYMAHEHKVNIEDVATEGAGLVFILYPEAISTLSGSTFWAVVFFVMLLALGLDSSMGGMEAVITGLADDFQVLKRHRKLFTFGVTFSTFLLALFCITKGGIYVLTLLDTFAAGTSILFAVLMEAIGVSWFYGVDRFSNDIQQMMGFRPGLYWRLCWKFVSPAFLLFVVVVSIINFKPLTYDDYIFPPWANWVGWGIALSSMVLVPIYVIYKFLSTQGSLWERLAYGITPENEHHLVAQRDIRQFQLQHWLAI
Endpoint: EC50 (nM)
Give the quantity in nM, number only.

Input line: Looking for the measured EC50 of CNC(C)Cc1ccc2ccsc2c1 (stereo not shown) [drawing 522] , can you help?
Output line: 684

---

target: ADRB1 (Adrenergic Receptor β1) (Homo sapiens, UniProt P08588); assay: ADRB1/cAMP
Sequence (P08588 whole entry): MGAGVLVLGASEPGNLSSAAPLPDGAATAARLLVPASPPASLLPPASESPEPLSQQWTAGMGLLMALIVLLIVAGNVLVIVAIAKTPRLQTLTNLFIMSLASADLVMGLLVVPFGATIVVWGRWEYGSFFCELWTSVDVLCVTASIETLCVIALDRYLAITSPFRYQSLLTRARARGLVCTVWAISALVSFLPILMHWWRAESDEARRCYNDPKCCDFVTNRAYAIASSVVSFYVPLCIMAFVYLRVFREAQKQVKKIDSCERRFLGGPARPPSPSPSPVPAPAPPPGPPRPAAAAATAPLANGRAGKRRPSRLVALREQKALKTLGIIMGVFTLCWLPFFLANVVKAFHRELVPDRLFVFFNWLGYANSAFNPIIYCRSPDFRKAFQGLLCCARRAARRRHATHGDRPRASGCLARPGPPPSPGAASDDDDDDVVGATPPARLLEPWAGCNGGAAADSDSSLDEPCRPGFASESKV
pEC50: −log10 of the molar value.
Endpoint: pEC50

Input line: Please report the recorded pEC50 for CNC(C)Cc1ccc2ccsc2c1 (stereo not shown) [drawing 522] .
Output line: < 5.00

---

target: CNR1 (Cannabinoid Receptor 1) (Homo sapiens, UniProt P21554); assay: CNR1/cAMP
Sequence (P21554 whole entry): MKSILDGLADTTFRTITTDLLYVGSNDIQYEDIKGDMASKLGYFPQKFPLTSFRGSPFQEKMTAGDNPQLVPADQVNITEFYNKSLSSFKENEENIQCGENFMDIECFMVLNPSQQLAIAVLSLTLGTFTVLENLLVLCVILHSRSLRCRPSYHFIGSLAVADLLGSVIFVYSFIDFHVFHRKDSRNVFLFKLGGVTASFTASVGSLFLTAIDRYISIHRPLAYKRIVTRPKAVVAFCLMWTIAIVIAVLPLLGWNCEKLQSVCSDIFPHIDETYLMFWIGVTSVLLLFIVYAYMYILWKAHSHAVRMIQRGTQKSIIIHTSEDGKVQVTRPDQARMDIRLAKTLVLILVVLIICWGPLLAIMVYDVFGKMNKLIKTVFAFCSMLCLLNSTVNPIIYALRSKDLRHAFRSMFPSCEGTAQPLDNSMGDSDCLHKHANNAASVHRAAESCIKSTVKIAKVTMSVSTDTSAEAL
Endpoint: EC50

Input line: Query the reported EC50 for CNR1 (Cannabinoid Receptor 1) (Homo sapiens, UniProt P21554); item: CNC(C)Cc1ccc2ccsc2c1 (stereo not shown) [drawing 522]
Output line: > 10 µM

---

biological target: AVPR1A (Arginine Vasopressin Receptor 1A) (Homo sapiens); assay: AVPR1A/Calcium Flux
Sequence (P37288 whole entry): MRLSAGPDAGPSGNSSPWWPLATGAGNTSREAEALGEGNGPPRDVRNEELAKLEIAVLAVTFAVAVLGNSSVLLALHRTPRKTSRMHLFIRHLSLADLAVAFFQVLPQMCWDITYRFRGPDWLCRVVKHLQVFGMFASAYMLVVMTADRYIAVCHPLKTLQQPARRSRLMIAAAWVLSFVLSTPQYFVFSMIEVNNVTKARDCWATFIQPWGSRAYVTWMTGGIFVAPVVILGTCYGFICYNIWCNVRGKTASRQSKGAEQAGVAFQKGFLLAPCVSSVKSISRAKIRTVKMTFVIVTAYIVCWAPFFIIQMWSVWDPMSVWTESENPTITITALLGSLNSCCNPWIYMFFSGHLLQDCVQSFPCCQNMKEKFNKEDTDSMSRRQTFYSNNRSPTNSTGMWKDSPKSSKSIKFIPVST
pEC50: −log10 of the molar value.
Endpoint: pEC50

Input line: Can you share its pEC50? I mean this compound: CNC(C)Cc1ccc2ccsc2c1 (stereo not shown) [drawing 522]
Output line: < 5.00

---

target: CHRM1 (Muscarinic acetylcholine Receptor M1) (Homo sapiens); test: cell-based
Endpoint: EC50

Input line: Endpoint output: EC50 of CNC(C)Cc1ccc2ccsc2c1 (stereo not shown) [drawing 522] . Value?
Output line: > 10 µM

---

human 5-HT transporter (hSERT) (Homo sapiens, UniProt P31645) IC50 data
Sequence (P31645 whole entry): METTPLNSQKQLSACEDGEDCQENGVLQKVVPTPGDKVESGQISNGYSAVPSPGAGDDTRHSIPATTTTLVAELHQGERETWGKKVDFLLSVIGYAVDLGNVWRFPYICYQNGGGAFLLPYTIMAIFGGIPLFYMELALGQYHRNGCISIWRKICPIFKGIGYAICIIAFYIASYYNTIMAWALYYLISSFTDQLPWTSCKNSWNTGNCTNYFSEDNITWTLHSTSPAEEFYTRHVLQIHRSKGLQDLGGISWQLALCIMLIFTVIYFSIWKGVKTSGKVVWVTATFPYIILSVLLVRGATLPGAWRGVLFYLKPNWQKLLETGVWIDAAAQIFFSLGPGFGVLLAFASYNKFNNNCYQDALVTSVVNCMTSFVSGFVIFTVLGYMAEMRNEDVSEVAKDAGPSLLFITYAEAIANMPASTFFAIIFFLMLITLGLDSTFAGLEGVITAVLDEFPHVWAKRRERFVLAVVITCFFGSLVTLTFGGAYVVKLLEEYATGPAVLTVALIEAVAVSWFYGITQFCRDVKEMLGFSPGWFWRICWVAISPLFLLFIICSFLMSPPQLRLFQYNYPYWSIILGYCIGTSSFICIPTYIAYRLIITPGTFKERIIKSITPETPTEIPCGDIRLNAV

In the examples that follow, each entry is paired with its recorded IC50.
>>> df
                                   molecule  measurement
0  CNC(C)C(=O)c1ccc2sccc2c1 (stereo not shown)      2000 nM
1  CNC(C)Cc1ccc2ccsc2c1 (stereo not shown) [drawing 525]      1500 nM
2  CCNC(C)Cc1ccc2sccc2c1 (stereo not shown)       100 nM

Would you kindly look at the next entry?
Input line: Form field - read-out: IC50; system: human 5-HT transporter (hSERT) (Homo sapiens, UniProt P31645); submitted item: CNC(C)Cc1ccc2sccc2c1 (stereo not shown)
Output line: 250 nM

---

Biological target: AR (Nuclear Hormone Androgen Receptor) (Homo sapiens, UniProt P10275)
Sequence (P10275 1-920): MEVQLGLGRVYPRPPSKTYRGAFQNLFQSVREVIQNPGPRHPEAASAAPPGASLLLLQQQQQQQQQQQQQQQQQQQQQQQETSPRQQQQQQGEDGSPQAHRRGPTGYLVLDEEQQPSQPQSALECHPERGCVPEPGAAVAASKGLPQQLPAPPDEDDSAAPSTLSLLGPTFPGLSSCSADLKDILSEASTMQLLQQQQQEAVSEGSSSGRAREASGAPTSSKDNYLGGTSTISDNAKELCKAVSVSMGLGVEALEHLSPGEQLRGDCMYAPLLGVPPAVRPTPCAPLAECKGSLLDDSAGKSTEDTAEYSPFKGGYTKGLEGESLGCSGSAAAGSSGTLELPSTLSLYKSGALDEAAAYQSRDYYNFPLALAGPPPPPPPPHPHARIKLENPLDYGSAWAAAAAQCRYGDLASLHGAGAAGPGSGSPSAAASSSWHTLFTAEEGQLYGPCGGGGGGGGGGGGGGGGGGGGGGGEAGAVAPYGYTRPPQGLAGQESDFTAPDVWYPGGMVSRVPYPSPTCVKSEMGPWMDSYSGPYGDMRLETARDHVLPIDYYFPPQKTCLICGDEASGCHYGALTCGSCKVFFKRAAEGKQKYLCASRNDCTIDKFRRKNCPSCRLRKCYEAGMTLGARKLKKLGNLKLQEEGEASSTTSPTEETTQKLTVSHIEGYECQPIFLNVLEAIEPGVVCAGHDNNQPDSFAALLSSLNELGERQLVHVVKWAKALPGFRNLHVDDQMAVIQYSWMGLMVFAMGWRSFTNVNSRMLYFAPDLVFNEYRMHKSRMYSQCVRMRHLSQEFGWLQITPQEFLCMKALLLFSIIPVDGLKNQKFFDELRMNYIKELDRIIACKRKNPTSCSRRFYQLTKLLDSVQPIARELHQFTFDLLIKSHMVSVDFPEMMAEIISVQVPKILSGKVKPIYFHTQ
Assay: AR/NHR Nuclear Translocation
Endpoint: EC50

Input line: Given the entry CNC(C)Cc1ccc2ccsc2c1 (stereo not shown) [drawing 522] , report its measured EC50.
Output line: > 10 µM
